Overview of reported normalized growth across a group of molecules:
EXPERIMENT_NOTES: chemical genetic growth profiling, strain panel (AID 1159580);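 note: tested at 20 µM; growth read once vehicle control cultures reached saturation at 30 °C; 1 = growth at the plate median or of vehicle wells; lower values mean less growth of the strain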
PROTOCOL_CONDITIONS: S. cerevisiae deletion strains, growth OD, locus YPL240C, strain hsp82, active compounds read low
Screen size: about 5,500 compounds; about 2,000 (36%) were called active. Inconclusive results (about 18%) are left out. Some of the results follow.
Form: value (number only, do not type unit).

Look over these answered cases.
MOLECULE	normalized growth
CO/N=C(/C(=O)NC1C(=O)N2C(C(=O)OCOC(=O)C(C)(C)C)=C(/C=C\c3scnc3C)CSC12)c1csc(N)n1 (stereo not given)	1
CC(=CC1CCC(C)C2C1=C(C)CC2O)C(=O)O (stereo not given)	1.02
CCCCN(CC)c1c([N+](=O)[O-])cc(C(F)(F)F)cc1[N+](=O)[O-]	1.01
O=c1c(O)cccc2cc(O)c(O)c(O)c12	0.864
CC(=O)O[C@@H]1C2CC[C@@H]3C1(C[C@@H](O)[C@@]1(O)[C@@H](C[C@H](O)C1(C)C)[C@]3(C)O)C[C@@]2(C)O (stereo not given in full)	0.98

Problem: Please supply the value of reported normalized growth for the item COC(=O)C[C@H]1C(C)(C)[C@@H](OC(C)=O)[C@@H]2CC3=C4CC(=O)O[C@@H](c5ccoc5)[C@]4(C)CCC3[C@@]1(C)C2=O (stereo not given in full)
Solution: 1

Problem: Read the entry CC1CC(OC(=O)c2ccccc2O)CC(C)(C)C1 (stereo not given) and write its reported normalized growth.
Solution: 0.958

Problem: Give the reported normalized growth for this molecule. `C=C[C@H]1CN2CC[C@H]1C[C@H]2[C@H](O)c1ccnc2ccccc12`
Solution: 1.01

Problem: Using known records, supply normalized growth for `O=C(N[C@@H](CO)[C@H](O)c1ccc([N+](=O)[O-])cc1)C(Cl)Cl`
Solution: 1.01

Problem: Supply reported normalized growth belonging to this molecule: `O=C(O)c1cc(=O)c2ccccc2[nH]1`
Solution: 0.982

----------
normalized growth overview
EXPERIMENT_NOTES: chemical genetic growth profiling, strain panel (AID 1159580);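 note: tested at 20 µM; growth read once vehicle control cultures reached saturation at 30 °C; 1 = growth at the plate median or of vehicle wells; lower values mean less growth of the strain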
PROTOCOL_CONDITIONS: S. cerevisiae deletion strains, growth OD, locus YOR001W, strain rrp6, active compounds read low
Screen size: about 5,500 compounds; about 2,000 (36%) were called active. Roughly 18% stayed inconclusive and do not appear here. This is one part of the list.
Answer with a number only.

Below, each entry is followed by its recorded normalized growth result.
COMPOUND	normalized growth
CC(NC(C)(C)C)C(=O)c1cccc(Cl)c1 (stereo unspecified)	1
O=C(O)c1cc(=O)c2ccccc2[nH]1	0.954
CN1CCN(C2=Nc3cc(Cl)ccc3Nc3ccccc32)CC1	0.996
CCC1(C2=NCCN2)Cc2ccccc2O1 (stereo unspecified)	1
CC1=C(C(=O)O)N2C(=O)[C@@H](NC(=O)[C@@H](N)c3ccc(O)cc3)[C@H]2SC1	1.06

Now look at this one.
Problem: Tell me normalized growth reported for CC(=CC1CCC(C)C2C1=C(C)CC2O)C(=O)O (stereo unspecified)
Solution: 1.04

----------
Here, each record is paired with measured normalized growth data.
EXPERIMENT_NOTES: chemical genetic growth profiling, strain panel (AID 1159580);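 note: tested at 20 µM; growth read once vehicle control cultures reached saturation at 30 °C; 1 = growth at the plate median or of vehicle wells; lower values mean less growth of the strain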
PROTOCOL_CONDITIONS: S. cerevisiae deletion strains, growth OD, locus YMR263W, strain SAP30, active compounds read low
Hit rate of the full screen: of about 5,500 compounds, about 2,000 (36%) were called active. Not shown: some 18% with an inconclusive outcome. The list shows a part of the results.
When you answer, write just the number.

As a guide, the following entries are already answered.
In [3]: df
Out[3]:
                                   compound       readout_kind  reading
0  Cc1ccc(O)c(C(CCN(C(C)C)C(C)C)c2ccccc2)c1 (centres undefined)  normalized growth     1.01
1  CCC1(C2=NCCN2)Cc2ccccc2O1 (centres undefined)  normalized growth     1.01
2           NC(=O)C1=C(O)C(=O)N(C2CCCCC2)C1  normalized growth        1
3                       COc1cc(O)ccc1C(C)=O  normalized growth    0.985

Problem: // Input: `C/C(=N/O)c1ccn(S(=O)(=O)c2ccc(Cl)cc2)c1` . Output its normalized growth only.
Solution: 0.998

Problem: Entry `O=C(CCc1ccc(O)cc1)c1c(O)cc(O)cc1O` needs its normalized growth filled in; supply it.
Solution: 0.991

Problem: State its normalized growth: `CC(C)Cn1c(=O)n(C)c(=O)c2[nH]cnc21`
Solution: 1.01

Problem: Supply recorded normalized growth for `Cn1c(=O)c2c(ncn2CCCl)n(C)c1=O` here.
Solution: 0.995

Problem: Quote normalized growth reported for `Cc1cccc(NC(=O)c2ccccc2)c1` please.
Solution: 0.973

Hey, just so you know, these numbers are from PubChem BioAssay AID1159580.
